Entries annotated with measured growth
System: SN12C renal
assay method text: NCI-60 one-dose screen, 48 h (100 = growth as untreated, 0 = no growth, -100 = all killed)
condition label: 10 µM unless noted
The panel holds about 83,000 compounds, 20% with a hit somewhere; the sample as a whole holds those more often.
outcome measure: growth (%)

>>> test_result("COc1ccc(-c2nc(SCC(C)C)nc(N/N=C\\c3cccc([N+](=O)[O-])c3)c2C#N)cc1")
43.3
>>> test_result("COCCC[C@H]1O[C@@](O)([C@H](C)[C@@H]2CC(OC)C(O)/C=C(C)/C=C(C)/C=C(\\C)C(OC3O[C@@H](C)[C@H](O)C(O)[C@@H]3O)C(C)/C=C(C)/C=C(OC)/C=C(\\C)C(=O)O2)C(OC)C(O)[C@]1(C)O[C@H]1C[C@@H](O)[C@H](O[C@H]2C[C@](C)(O)[C@H](O)C(C)O2)C(C)O1 (stereo partly drawn)")
68.3
>>> test_result("COc1cc2c3c(n(CCCNCC4CC4)c(=O)c2cc1OC)-c1cc2c(cc1C3=O)OCO2")
44.6
